meta.source: ChEMBL document CHEMBL1201862

Listed next: entries and their corresponding GI50.
tested on: SN12C; test: NCI tumour cell line growth inhibition, 48 h
Activity calls are given as the source filed them. Cut-off read from the data, not from the text of the source: active = GI50 up to about 1.1 µM and inactive = higher.
value-kind: GI50

| molecule | target-desc | value-kind | recorded-result |
| --- | --- | --- | --- |
| OCc1cc2ccncc2c2c1[nH]c1ccccc12 | SN12C | GI50 | 5.42 µM (inactive) |
| O=C(/C=C/c1cc(O)c(O)cc1O)OCCc1ccccc1 | SN12C | GI50 | 15.6 µM (inactive) |
| CC1(C)CC2(C)CC1CC2NC(=O)CCN1CCOCC1 (stereo not given) | SN12C | GI50 | > 100 µM (inactive) |
| COc1ccc2c(C)cc(N/N=C/c3ccc(C)s3)nc2c1 | SN12C | GI50 | 11.9 µM (inactive) |
| Clc1ccc(COc2ccccc2/C=N/c2c(-c3ccco3)nc3ccccn23)c(Cl)c1 | SN12C | GI50 | 25.8 µM (inactive) |
| CC1=NN(C(=O)Cc2ccccc2)C(=O)/C1=C\c1ccc(O)cc1 | SN12C | GI50 | > 100 µM (inactive) |
| N#CC(N)(C(=O)CCC(=O)Nc1cccc(Cl)c1)c1ccc(Cl)cc1 (stereo not given) | SN12C | GI50 | > 100 µM (inactive) |
| COC(=O)C(C(=O)C(=O)Nc1cccc(OC)c1)c1cnc2ccccc2n1 (stereo not given) | SN12C | GI50 | > 100 µM (inactive) |
| C#CC(O)/C=C/C(O)CCCC(O)CC#CC(O)C#CCCCCC(O)/C=C/CCCC(O)/C=C/CCCCCCCCCCCCCC(O)C(O)C#CC(=O)O (stereo not given) | SN12C | GI50 | > 25 µM (inactive) |
| CCOc1ccc2c(c1)[n+]([O-])c(-c1ccccc1)c(N)[n+]2[O-] | SN12C | GI50 | > 100 µM (inactive) |

----------
tested on: CCRF-CEM; assay: NCI tumour cell line growth inhibition, 48 h
The source made the active and inactive calls. No stated cut-off is given here; in the data, active = GI50 up to about 1.1 µM and inactive = higher.
Labels: active, inactive

| compound | class-name |
| --- | --- |
| CC(C)(C)C1(O)C=C(O)C(=O)N1NC(=O)c1ccccc1Nc1ccccc1 (centres undefined) | inactive |
| COc1c(C(=O)/C(=N/Nc2ccccc2)C(C)=O)c(O)c(OC)c2occc12 | inactive |
| C=C(Br)CNC(=O)Nc1ccc(Cl)c(Cl)c1 | inactive |
| O=S1(=O)NN=C(NCc2ccc(Cl)c(Cl)c2)c2ccccc21 | inactive |
| C=C1C(=O)OC2C1C(OC(=O)/C(C)=C/C)CC1(C)C(=O)CCC(=C)C21 (centres undefined) | inactive |
| CCOC(=O)c1ccc(/N=c2\oc3ccc(OC)cc3cc2-c2nc3ccccc3[nH]2)cc1 | inactive |
| CC1OC(O[C@H]2CC[C@]3(C)[C@H]4CC=C5[C@@H]6[C@@H](C)[C@H](C)CC[C@]6(C(=O)O)CC[C@@]5(C(=O)O)[C@]4(C)CC[C@H]3C2(C)C)C(O)C(O)C1O (some centres undefined) | inactive |
| O=[N+]([O-])c1cc2no[n+]([O-])c2cc1N1CCCCC1 | active |
| Nc1nc2c(nnn2C2C=C(CO)C(O)C2O)c(=O)[nH]1 (centres undefined) | inactive |

----------
Listed next: entries and their corresponding GI50.
test system: SN12C; assay: NCI tumour cell line growth inhibition, 48 h
Calls of active or inactive are those of the source. No stated cut-off is given here; in the data, active = GI50 up to about 1.1 µM and inactive = higher.
value-kind: GI50

| compound | recorded-result |
| --- | --- |
| N=NCC(=O)OC(COCc1ccccc1)COCc1ccccc1 | 80.5 µM (inactive) |
| O=C1N/C(=N/N=C/C(O)C(O)C(O)C(O)CO)N/C1=C\c1ccco1 (stereo not given) | > 100 µM (inactive) |
| N#CC12C(=O)N3C(=NC(c4ccccc4)NC3c3ccccc3)C1(C#N)C(c1ccccc1)NC1=C2CCCC1 (stereo not given) | > 100 µM (inactive) |
| CC1=NC2(C(=O)O)C3(C(=O)O)N=C(C)OC3(C(F)(F)F)C2(C(F)(F)F)O1 (stereo not given) | > 100 µM (inactive) |
| CC(C)CCC[C@@H](C)[C@H]1CCC2C3CC=C4C[C@@H](Oc5c6ccccc6nc6ccccc56)CCC4C3CCC21 (stereo not given in full) | > 50 µM (inactive) |
| Cc1ccccc1-n1c(N)c(-c2nc3ccccc3[nH]2)sc1=S | 26.4 µM (inactive) |
| CCC12CCCC(=O)N1C(CO)C(c1ccccc1)O2 (stereo not given) | > 100 µM (inactive) |
| CC(C)OP(=O)(OC(C)C)/C(=N/Nc1ccc([N+](=O)[O-])cc1)Nc1ccccc1 | 48.6 µM (inactive) |
| CCOC(=O)C1C(c2ccc(OC)cc2)c2c(nn(-c3ccccc3)c2O)CC1(O)OCC (stereo not given) | > 100 µM (inactive) |
| C/C(=N\NC(=S)N(C)C)c1nc2cccnc2[nH]1 | 1.16 µM (inactive) |
